# target-system: UniProt:P08908
# Sequence (P08908 whole entry): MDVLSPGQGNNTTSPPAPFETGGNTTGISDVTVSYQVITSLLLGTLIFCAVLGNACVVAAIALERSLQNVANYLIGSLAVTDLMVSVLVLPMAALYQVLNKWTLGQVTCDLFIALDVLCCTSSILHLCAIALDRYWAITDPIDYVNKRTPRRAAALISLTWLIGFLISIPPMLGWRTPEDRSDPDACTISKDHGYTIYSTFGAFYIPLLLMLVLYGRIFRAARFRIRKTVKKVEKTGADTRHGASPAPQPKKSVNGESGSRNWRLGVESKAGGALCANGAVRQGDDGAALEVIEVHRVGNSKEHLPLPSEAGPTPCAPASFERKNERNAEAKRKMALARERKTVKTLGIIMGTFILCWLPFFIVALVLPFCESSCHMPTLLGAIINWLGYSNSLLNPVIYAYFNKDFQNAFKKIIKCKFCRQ
measure: pEC50
// returns pEC50 (minus log10 of molar concentration), number only

Here is how some compounds turned out for pEC50.
>>> val("N#Cc1ccc2[nH]cc(CCCCN3CCN(c4ccc(C(=O)CCC5CCN(CC6CC6)CC5)cc4)CC3)c2c1")
8.04
>>> val("N#Cc1ccc2[nH]cc(CCCCN3CCN(c4ccc(C(=O)CCC5CCN(Cc6cccc(C(F)(F)F)c6)CC5)cc4)CC3)c2c1")
6.49
>>> val("N#Cc1ccc2[nH]cc(CCCCN3CCN(c4ccc(C(=O)CCC5CCN(CC6CCCC6)CC5)cc4)CC3)c2c1")
7.30

Task: Given the entry N#Cc1ccc2[nH]cc(CCCN3CCN(c4ccc(C(=O)CCC5CCN(Cc6ccccc6)CC5)cc4)CC3)c2c1 , report its measured pEC50.
Output: 7.18

Task: Ok, now N#Cc1ccc2[nH]cc(CCCN3CCN(c4ccc(C(=O)CCC5CCN(Cc6ccoc6)CC5)cc4)CC3)c2c1
Output: 7.54
